Data origin, for the record: the NIST ThermoML archive (doi:10.1021/je0502851)

TEST_DESCRIPTION: Molar enthalpy of transition or fusion
CONDITION_CONTEXT: Crystal; DSC
VALUE_KIND: Molar enthalpy of transition or fusion (kcal/mol)
// units = kcal/mol; emit number, no label

Solved cases below.
NCCCCCCCCN	12.1
NCCCCCCN	9.41

Param item = `c1ccc2ccccc2c1` ; retrieve measured Molar enthalpy of transition or fusion.
4.67

// query: `NCCCCCCCCCCCCN`
16

* * *

Let's look at some molecules and their measured Normal melting temperature.
CONDITION_CONTEXT: Crystal; DTA
// units = °C; emit number, no label

Param item = NCCCCCCCCCCCCN [1,12-dodecanediamine] ; retrieve measured Normal melting temperature.
68.69
